Kindly state pIC50 for each of the entries shown.
- System: MYB mRNA
- PROCEDURE_DETAILS: Splicing RT-qPCR assay, MYB canonical (CJ) and alternative (AJ) junction mRNA
- Format: cell-based, human
- COND: Homo sapiens, 24 h, A673 or K562 cells, 24 hours compound treatment, RT-qPCR; read-out: MYB CJ (IC50, decrease in canonical junction mRNA)
pIC50: −log10 of the molar value. Counter-ions that a name gives are not always drawn.

## Input Quick one: pIC50 for "Cn1cc2c(N3CCNCC3)ccc(C(=O)Nc3ccc4c(c3)oc(=O)n4C)c2n1" ?
## Output < 5.00

## Input Recorded pIC50 of "Cc1cn2cc(NC(=O)c3ccc(N4CC[C@H](N)C4)c4cn(C)nc34)cc(F)c2n1" , please.
## Output > 7.00

## Input Would you kindly share the measured pIC50 for "CCn1cc2c(N3CC[C@H](N(C)C)C3)cc(F)c(C(=O)Nc3cc(F)c4nc(C)cn4c3)c2n1" ?
## Output > 7.00

## Input Look up pIC50: CCn1cc2c(N3CCC(N(C)C)C3)ccc(C(=O)Nc3cc(F)c4nc(C)cn4c3)c2n1 (stereo not shown)
## Output 6.00 to 7.00

## Input // query pIC50 value for entry CCn1cc2c(C3OCC(C)(N)CO3)ccc(C(=O)Nc3cc(F)c4nc(C)cn4c3)c2n1 (stereo not shown)
## Output 6.00 to 7.00

## Input Looking for the measured pIC50 of "Cc1cn2cc(NC(=O)c3ccc(N4CC[C@@H](NC5CC5)C4)c4cn(C)nc34)cc(F)c2n1" , can you help?
## Output > 7.00

## Input Tell me the measured pIC50 of Cc1cn2cc(NC(=O)c3ccc(N4CCNC(C)C4)c4cc(C)oc34)cc(F)c2n1 (stereo not shown) , please.
## Output > 7.00

## Input What pIC50 value was documented for this molecule, "Cc1cn2cc(NC(=O)c3ccc(N4CC(C)(C)NC(C)(C)C4)c4cn(C)nc34)cc(F)c2n1" ?
## Output 6.00 to 7.00

## Input Can you share its pIC50? I mean this molecule: "CCNC1CCN(c2ccc(C(=O)Nc3cn4cc(C)nc4c(F)c3OC)c3nn(C)cc23)CC1"
## Output > 7.00

## Input Which measured pIC50 value corresponds to "Cc1cn2cc(NC(=O)c3ccc(N4CC[C@H](NC5CC5)C4)c4cn(C)nc34)cc(F)c2n1" ?
## Output > 7.00

## Input # input molecule: Cc1cn2nc(NC(=O)c3ccc(N4CCNCC4)c4cn(C)nc34)cc(C)c2n1 [Compound 322, hydrochloride] ; wanted: its pIC50
## Output 5.00 to 6.00

## Input Recorded pIC50 of "Cc1cn2cc(NC(=O)c3ccc(N4CCC(NC(C)(C)C)CC4)c4cn(C)nc34)cc(F)c2n1" , please.
## Output 6.00 to 7.00

## Input Which pIC50 value belongs to Cc1cn2c(n1)CCC(NC(=O)c1ccc(N3CCNCC3)c3cn(C)nc13)C2 (stereo not shown) ?
## Output < 5.00

## Input # input molecule: "Cc1cn2nc(NC(=O)c3ccc(C4CCNCC4)c4ccoc34)cc(C)c2n1" ; wanted: its pIC50
## Output 5.00 to 6.00

## Input I have this molecule here, "CN[C@@H]1CCN(c2ccc(C(=O)Nc3cn4cc(C)nc4c(Oc4ccccc4)n3)c3nn(C)cc23)C1" , and I need its recorded pIC50.
## Output 6.00 to 7.00

## Input Consider the molecule shown here: "Cc1cn2cc(NC(=O)c3ccc(N4CCNCC4)c4cn(C)nc34)ncc2n1" What is its recorded pIC50?
## Output > 7.00
